Test system: T-47D breast
Protocol Notes: NCI tumour cell line growth inhibition, 48 h
Reported Metric: TGI (µM)
Numeric only. Scale: µM

* CCOC(=O)Oc1cc2c(c(OC)c1OC)-c1ccc(SC)c(=O)cc1C(NC(=O)C(F)(F)F)CC2 (stereo not given) | 81

Query: // TGI lookup, key: "COc1ccc(N2C(=Nc3ccccc3)SC(=N/S(=O)(=O)c3ccccc3)/C2=N\S(=O)(=O)c2ccccc2)cc1"
Response: 20.1

Query: Look at this compound and give its reported TGI. "Clc1cc2c(c(CSC3=NCN(CC4CC4)CN3)c1)OCOC2"
Response: 62.2

Query: Data request, read-out TGI, for "COc1ccc(-c2cc(/C=C3\C(=O)Nc4ccc(Cl)cc43)[nH]n2)cc1"
Response: 14.6

Query: For the compound "NC1CCN(c2nc(Nc3cccc(C(F)(F)F)c3)c3c(=O)[nH]ccc3n2)CC1" , what TGI is on record?
Response: 3.26

Query: Quick one: TGI of "NNc1cccc(/C=C/c2ccccc2)cc1=O" ?
Response: 92.5

Query: Quick one: TGI of "Clc1nc(Cl)c(Cl)c(Cl)n1" ?
Response: 41

----------
System: MDA-N
Protocol Notes: NCI tumour cell line growth inhibition, 48 h
Reported Metric: TGI

Field: example entries. Status: answers known.
- O=C(NCCC(F)(F)C(F)(F)C(F)(F)C(F)(F)F)NC1OC(CO)C(O)C(O)C1O (stereo unspecified): > 100 µM
- C=CC1ON(Cc2ccccc2)CCc2cc(OC)c(OC)cc21 (stereo unspecified): 89.5 µM

Query: Give the measured TGI of Cc1ccc(OCC2OC(n3cnc4c(N(C)C)nc(Br)nc43)CC2Oc2ccc(C)cc2)cc1 (stereo unspecified) .
Response: > 100 µM

Query: Endpoint output: TGI of "C1CSCCCSCCSCCCSC1" . Value?
Response: > 100 µM

Query: Request the reported TGI associated with Cn1c(C(C#N)c2nc(Cl)ncc2Br)nc2ccccc21 (stereo unspecified)
Response: > 100 µM

Query: TGI for "C[C@]1(CO)[C@H]2CC[C@@]34C=C[C@@](CO)(CC[C@H]3[C@]2(C)CC[C@H]1O)C4" ?
Response: > 100 µM

Query: Reported TGI for CC(C)CCC[C@@H](C)[C@H]1CCC2C3CC=C4C[C@@H](Oc5c6ccccc6nc6ccccc56)CCC4C3CCC21 (stereo partly specified) : what is it?
Response: > 50 µM

Query: Need TGI, item CC12CCC(C(=O)O1)C(C)(C)O2 (stereo unspecified)
Response: > 100 µM

Query: Report TGI for "CC(C)(C)NCc1cc(C(C)(C)C)cc(-c2ccc(Cl)cc2)c1O" please.
Response: 31.4 µM

Query: I would be grateful if you could share the reported TGI for "CC1(C)N=C(C(N)=O)c2ncn(CCO)c2N1" .
Response: > 100 µM

Query: Need TGI of "C=CCOCn1cnc2c(N)ncnc21" , thanks.
Response: > 100 µM

----------
Test system: SK-MEL-28 melanoma
Protocol Notes: NCI tumour cell line growth inhibition, 48 h
Reported Metric: TGI

Below, 5 compounds whose answers are already recorded.
- CCOC(=O)Nc1c(C#N)[n+]([O-])c2cc(Cl)c(Cl)cc2[n+]1[O-]: 30.7 µM
- CCC(=O)C(C)C1=Nc2nnc(CCCCCCCc3nnc4n3C(=O)C(C(C)C(=O)CC)=N4)n2C1=O (centres undefined): > 100 µM
- O=C(Nc1nc2ccccc2n1Cc1ccccc1)NC12CC3CC(CC(C3)C1)C2: > 100 µM
- O=C1C[C@@H]2C(COC(=O)c3ccccc3)N(OCc3ccccc3)C[C@@H]2O1 (some centres undefined): > 100 µM
- CC/C=C\C[C@H](O)C/C=C1/C(=O)C=C[C@@H]1C/C=C\CCCC(=O)N(C)C: 4.31 µM

Query: Look up TGI: CC(C(=O)ON1C(=O)CCC1=O)c1ccc(C(=O)c2ccccc2)s1 (centres undefined)
Response: > 100 µM

Query: Dear colleague, I am looking for the recorded TGI of the following compound: C=C=C(CC)C(C(=O)OC)N(CC)CC (centres undefined)
Response: > 100 µM

----------
Tested on: NCI-H460 lung
Protocol Notes: NCI tumour cell line growth inhibition, 48 h
// values below are reported TGI

Worked examples, 3 compounds total:
• Nc1nnc2cc(Cl)ccc2n1 = > 100 µM
• C(CCC[Te][Te]CCCCCCOC1CCCCO1)CCOC1CCCCO1 (stereo not drawn) = 30 µM
• C1CSCCCSCCSCCCSC1 = > 100 µM

Query: Any idea what TGI was measured for CC(=O)NCCC1CN(C(=O)/C=C\C#C[Si](C)(C)C)c2ccccc21 (stereo not drawn) ?
Response: > 100 µM

Query: Which TGI reading was recorded for the compound "O=C(Nc1cccc(C(F)(F)F)c1)O/N=C(/Cl)CCl" ?
Response: > 100 µM

Query: Recorded TGI for "CC1(C)N=C(C(N)=O)c2ncn(CCO)c2N1" , please?
Response: > 100 µM

Query: Consider the compound "CN(C)c1nc(NC23CC4CC(CC(C4)C2)C3)nc(N(C)C)n1" and give its measured TGI.
Response: > 100 µM

Query: Any idea what TGI was measured for "CCOc1cc2c(NCCCN(CCO)CCO)ncnc2c(OCC)c1OCC" ?
Response: > 100 µM

Query: Can you share its TGI? I mean this compound: COC(=O)C1=C(C)NC2(O)C=CC(=O)C3C(=O)N(c4ccccc4)C(=O)C132 (stereo not drawn)
Response: > 100 µM

Query: May I ask what TGI has been recorded for "CCOC(=O)c1cc(C(=O)c2ccccc2)n2nc(-c3ccc(Cl)cc3)ccc12" ?
Response: 50.9 µM

Query: Given the entry "COc1ccc2[nH]c(Cl)c(/C=C3/C(=O)Nc4cc(C)c(OC)cc43)c2c1" , report its measured TGI.
Response: 12.9 µM

Query: Can you look up the measured TGI of Nc1nc2c(c(=O)[nH]1)N(C=O)C(CNc1ccc(C(=O)N[C@@H](CCC(=O)O)C(=O)O)cc1)CN2 (stereo partly drawn) for me?
Response: > 125 µM

Query: I have this compound here, "O=c1[nH]nc(-c2ccccc2)n1/N=C/c1c[nH]c2ccccc12" , and I need its recorded TGI.
Response: > 100 µM

----------
System: M19-MEL melanoma
Protocol Notes: NCI tumour cell line growth inhibition, 48 h
Reported Metric: TGI

A selection of reference data follows.
- CC(=O)OCCOCNC(=S)N/N=C(\C)c1cnc2ccccc2n1: 77.1 µM
- Cc1c(C(=O)c2ccccc2C(=O)O)c2ccccc2n1C: > 100 µM
- Cc1c(C(=O)NCCO)[n+](=O)c2cc(Cl)ccc2n1[O-]: > 100 µM
- COc1ccc2c(c1OC)C1=C(C2=O)c2cc3c(cc2CCN1)OCO3: > 100 µM
- CCNC(=O)C#CC(=O)NCC: > 100 µM

Query: Given the entry COc1cccc(NC(=O)CC(=O)N2N=C(N(CCC#N)c3ccccc3C)CC2c2ccccc2)c1 (configuration not stated) , report its measured TGI.
Response: > 100 µM

Query: Would you kindly share the measured TGI for CN1c2ccccc2N(C)C2C1N(C)c1ccccc1N2C (configuration not stated) ?
Response: 32.7 µM

Query: Item C=C1C(=O)OC2(C)C3CCC(C3)C12 (configuration not stated) has what recorded TGI?
Response: > 100 µM

Query: Which TGI value is on record for "O=c1cc2ccccc2nn1Cc1ccccc1Cl" ?
Response: > 100 µM

Query: Find the recorded TGI belonging to CO/C1=C\C(C)=C\C(C)C(O)C(C)C/C(C)=C/C=C/C(OC)C(C(C)C(O)C(C)C2(O)CC(O)C(C)C(C(C)C)O2)OC1=O (configuration not stated) and report it.
Response: 3.12 µM

Query: Consider the compound CC(=O)OC1CC2C(C)(C)C(=O)C=C[C@]2(C)C2CCC3(C)C(c4ccoc4)C(=O)[C@H]4O[C@]43[C@]12C (some centres not stated) and give its measured TGI.
Response: 55.2 µM

Query: Can you look up the measured TGI of CCOC(=O)C1(Cc2ccccc2)CCCCCN1 (configuration not stated) for me?
Response: > 100 µM

----------
# TGI listing for each entry below
Tested on: SN12C renal
Protocol Notes: NCI tumour cell line growth inhibition, 48 h

• CCOc1cc2c(NCCCN(CCO)CCO)ncnc2c(OCC)c1OCC = > 100 µM
• COc1ccc2cc1Oc1ccc(cc1)C(Sc1ccccc1)CCOC(=O)CC2 (stereo not given) = > 100 µM
• CCC1C(c2cccc(OC)c2O)c2cc3c(cc2OC1N1CCCC1)OCO3 (stereo not given) = 38.3 µM
• CN1C(=S)C(c2ccccc2)Sc2ccccc21 (stereo not given) = > 100 µM
• c1ccc(-c2sc(-c3cccs3)cc2Cc2cccs2)cc1 = > 10 µM
• COC(=O)c1sc(C(=O)OC)c2c1CSC2 = > 100 µM
• NC1CCN(c2nc(Nc3cccc(C(F)(F)F)c3)c3c(=O)[nH]ccc3n2)CC1 = 2.8 µM
• NC(=Nc1ccc(O)cc1)S(=O)(=O)O = > 100 µM

Query: Fill in the blank: the reported TGI of "Clc1ccc2[nH]cc(-c3nc(-c4c[nH]c5ncccc45)cs3)c2c1" is ____.
Response: 20.9 µM

Query: Returns the measured TGI for the input compound. Input: "CC(=O)O[C@H]1CC[C@@]2(C)C(=CC[C@H]3[C@@H]4C/C(=C\c5cccc(OCCN6CCOCC6)c5)[C@H](OC(C)=O)[C@@]4(C)CC[C@@H]32)C1"
Response: > 100 µM

Data provenance is PubChem BioAssay (NCI).
